Origin of values: ChEMBL document CHEMBL4834430

Assay: AUC in CD-1 mouse brain at 8 mg/kg, po measured up to 6 hrs
Assay type: ADME, organism-based
Set-up: route oral, dose 8 mg/kg, time <=6
recorded-endpoint: AUC at 6 h (µg·h/mL)
Answers are plain numbers, in µg·h/mL.

Let me know recorded AUC at 6 h for `COc1ccc(-c2ccc(CO[C@H]3C[C@@H](N=C=S)C3)nc2)cc1F` , thanks. 0.0103

---

Biological target: Cytochrome P450 2C19 (Homo sapiens, UniProt P33261)
Sequence (P33261 whole entry): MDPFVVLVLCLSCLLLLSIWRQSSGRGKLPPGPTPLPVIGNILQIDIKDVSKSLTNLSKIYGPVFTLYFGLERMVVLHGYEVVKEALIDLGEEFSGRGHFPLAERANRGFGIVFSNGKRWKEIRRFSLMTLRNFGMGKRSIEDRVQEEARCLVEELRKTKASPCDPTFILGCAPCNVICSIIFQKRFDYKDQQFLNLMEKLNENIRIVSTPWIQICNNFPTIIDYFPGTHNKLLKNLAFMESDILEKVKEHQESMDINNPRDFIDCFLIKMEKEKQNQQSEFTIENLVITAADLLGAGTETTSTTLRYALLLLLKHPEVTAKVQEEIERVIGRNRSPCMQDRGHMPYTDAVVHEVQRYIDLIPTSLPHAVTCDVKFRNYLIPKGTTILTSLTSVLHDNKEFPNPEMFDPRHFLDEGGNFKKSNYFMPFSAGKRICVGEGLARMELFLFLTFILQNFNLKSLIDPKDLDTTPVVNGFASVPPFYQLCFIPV
recorded-endpoint: pIC50
Numbers only, as −log10 of the molar value.

Let me know recorded pIC50 for `COc1ccc(-c2ccc(CO[C@H]3C[C@@H](N=C=S)C3)nc2)cc1F` , thanks. 5.48

---

Assay: Half life in rat liver microsomes at 1 uM in presence of NADPH by LC-MS/MS analysis
Type: ADME, Microsome
For each record, write down the corresponding half-life at 1 µM.
One number for each entry, in min.

Batch: half-life at 1 µM for all items listed.
1. COc1cnc(-c2ccc(CO[C@H]3C[C@@H](N=C=S)C3)cn2)cc1F
2. CN(Cc1ccc(-c2ccccc2)cc1)[C@H]1C[C@@H](N=C=S)C1
3. COc1ccc(-c2ccc(OC(=O)N[C@H]3C[C@@H](N=C=S)C3)cc2)cc1
4. COc1ncccc1-c1ccc(CO[C@H]2C[C@@H](N=C=S)C2)c(F)c1

10.2
4.4
5
14.5

Batch: half-life at 1 µM for all items listed.
1. COc1ccc(-c2ccc(C(=O)N[C@H]3C[C@@H](N=C=S)C3)nc2)cc1F
2. Fc1cc(-c2cccc(C(F)(F)F)c2)ccc1CO[C@H]1C[C@@H](N=C=S)C1

1: 8.6; 2: 17.9

Batch: half-life at 1 µM for all items listed.
1. COc1ccc(-c2ccc(S(=O)(=O)N[C@H]3C[C@@H](N=C=S)C3)cc2)cc1F
2. COc1ccc(-c2ccc(CO[C@H]3C[C@@H](N=C=S)C3)nc2)cc1F
3. S=C=N[C@H]1C[C@@H](OCc2ccc(-c3ccccc3)cc2)C1
4. Fc1cc(-c2ccc(OC(F)(F)F)c(F)c2)ccc1CO[C@H]1C[C@@H](N=C=S)C1
5. Fc1cc(-c2ccc3c(c2)OCO3)ccc1CO[C@H]1C[C@@H](N=C=S)C1
6. COc1cnc(-c2cnc(CO[C@H]3C[C@@H](N=C=S)C3)c(F)c2)cc1F

[6, 19.2, 19.6, 9.1, 6.5, 7.4]

---

Assay: Clearance in CD-1 mouse plasma at 2 mg/kg, iv measured up to 8 hrs
Format: ADME, organism-based
recorded-endpoint: clearance (mL/min/kg)
Answers are plain numbers, in mL/min/kg.

Let me know recorded clearance for `COc1ccc(-c2ccc(CO[C@H]3C[C@@H](N=C=S)C3)nc2)cc1F` , thanks. 412

---

Test: Drug concentration in plasma of CD-1 mouse at 2 mg/kg, iv administered as single cassette dose measured after 15 mins
Format: ADME, organism-based
recorded-endpoint: concentration at 0.25 h (ng/mL)
Answers are plain numbers, in ng/mL.

# smiles-text, concentration at 0.25 h (ng/mL)
rows = [
    ("Fc1cc(-c2ccc(OC(F)(F)F)c(F)c2)ccc1CO[C@H]1C[C@@H](N=C=S)C1", 178),
]

Batch: concentration at 0.25 h for all items listed.
1. Fc1cc(-c2cccc(C(F)(F)F)c2)ccc1CO[C@H]1C[C@@H](N=C=S)C1
2. COc1ccc(-c2ccc(C(=O)N[C@H]3C[C@@H](N=C=S)C3)nc2)cc1F
3. COc1ccc(-c2ccc(C(=O)N[C@H]3C[C@@H](N=C=S)C3)nc2)cc1
4. COc1ccc(-c2ccc(CO[C@H]3C[C@@H](N=C=S)C3)nc2)cc1F
5. COc1ccc(-c2ccc(S(=O)(=O)N[C@H]3C[C@@H](N=C=S)C3)nc2)cc1
6. Fc1cc(-c2ccc3c(c2)OCCO3)ccc1CO[C@H]1C[C@@H](N=C=S)C1

[1010, 264, 264, 189, 126, 168]

Batch: concentration at 0.25 h for all items listed.
1. Fc1cc(-c2ccc3c(c2)OCO3)ccc1CO[C@H]1C[C@@H](N=C=S)C1
2. COc1ccc(-c2ccc(S(=O)(=O)N[C@H]3C[C@@H](N=C=S)C3)cc2)cc1

1. 244
2. 164
